- Assay System: purified recombinant human Aggrecanase-2 (Ag2t-Phe628-Strep) (Homo sapiens)
- Construct: the form used is denoted as Ag2t-Phe628-Strep (MW=41,737)
- Sequence (Q9UNA0 262-628): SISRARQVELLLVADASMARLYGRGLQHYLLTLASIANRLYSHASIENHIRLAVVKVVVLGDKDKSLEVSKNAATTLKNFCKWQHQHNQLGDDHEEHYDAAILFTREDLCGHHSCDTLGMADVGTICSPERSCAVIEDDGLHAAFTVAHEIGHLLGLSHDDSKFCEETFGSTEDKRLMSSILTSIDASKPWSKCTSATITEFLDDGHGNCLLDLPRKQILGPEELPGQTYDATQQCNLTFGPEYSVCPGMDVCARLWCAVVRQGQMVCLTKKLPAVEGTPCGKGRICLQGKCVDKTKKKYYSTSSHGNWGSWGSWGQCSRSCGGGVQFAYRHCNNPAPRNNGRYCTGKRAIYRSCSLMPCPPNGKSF
- Procedure Details: In vitro fluorescence screen for Aggrecanase-2 inhibitors
- Type: biochemical
- Measurement Setup: Table 3; read-out: Agg 2 IC50
Property: IC50 (nM)

(I) CC(C)(Cc1ccccc1)NC(=O)[C@H](CCC(=O)O)NC(=O)c1ccc(-c2ccc(F)cc2)cc1
(II) CC(C)(Cc1ccc(Cl)s1)NC(=O)[C@H](CCC(=O)O)NC(=O)c1ccc(-c2cccc(F)c2)cc1 [Example 8XXXXXX]
**Q:** Of the pair I and II , name the member with the lesser recorded IC50. Answer = label.
**A:** II
(II: 20 nM, I: 90 nM)

All values here come from patent US7998965B2.
